Reference for the values: patent US20140329854A1

- system: SIRT1 (Homo sapiens, UniProt Q96EB6)
- Construct: purchased Cisbio Bioassays
- Sequence (Q96EB6 whole entry): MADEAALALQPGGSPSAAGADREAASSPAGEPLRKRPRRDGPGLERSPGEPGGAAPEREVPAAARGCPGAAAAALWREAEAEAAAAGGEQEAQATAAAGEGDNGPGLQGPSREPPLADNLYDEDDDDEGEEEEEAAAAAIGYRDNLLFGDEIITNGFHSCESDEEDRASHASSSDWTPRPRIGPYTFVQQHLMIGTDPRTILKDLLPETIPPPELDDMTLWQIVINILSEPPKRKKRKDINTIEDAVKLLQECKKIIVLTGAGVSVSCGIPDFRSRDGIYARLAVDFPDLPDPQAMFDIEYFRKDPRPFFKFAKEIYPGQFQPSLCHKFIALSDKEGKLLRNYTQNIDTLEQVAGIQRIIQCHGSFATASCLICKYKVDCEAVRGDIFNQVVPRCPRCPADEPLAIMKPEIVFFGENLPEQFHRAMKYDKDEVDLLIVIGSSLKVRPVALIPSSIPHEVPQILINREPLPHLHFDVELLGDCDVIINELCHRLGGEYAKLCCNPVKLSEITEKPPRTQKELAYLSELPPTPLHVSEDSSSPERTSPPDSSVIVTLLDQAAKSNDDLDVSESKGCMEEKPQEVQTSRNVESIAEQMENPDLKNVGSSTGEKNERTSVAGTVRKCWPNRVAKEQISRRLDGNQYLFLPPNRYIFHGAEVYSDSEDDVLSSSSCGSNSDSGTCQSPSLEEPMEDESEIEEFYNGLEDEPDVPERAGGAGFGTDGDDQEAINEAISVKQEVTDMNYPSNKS
- protocol_notes: CISBIO HTRF SIRT1 assay of SIRT1 peptide deacetylation, modified by excluding NAD+
- Format: biochemical
- condition_details: average AC50 values, n = 6; read-out: AC50
- Excerpt: Generally, the CISBIO HTRF® fluorescence enzyme titration assay (Cisbio Bioassays, Cisbio, 135 South Road, Bedford, Mass. 01730, USA) has provided information on inhibition and/or activation of SIRT1 deacetylation of a substrate peptide d2 containing a single acetylated lysine residue and a fluorescence probe/quencher. IC50 and AC50 values have been obtained. […] Reaction with anti-acetyl cryptate produces a FRET signal giving maximum signal when no SIRT1 reaction can be detected. […]
endpoint_label: AC50 (µM)
Write down the numeric answer in µM and omit the unit.

These recorded examples may help you get a feel for the data.
> print(dat)
                                   molecule                                system  endpoint.label  quantitative.readout
1  NC(=O)c1ccc(C(=O)Nc2ccc(O)cc2O)nc1 [Compound 3]  SIRT1 (Homo sapiens, UniProt Q96EB6)            AC50                    10
2  NC(=O)c1ccc(C(=O)Nc2c(O)ccc3cc(Cl)ccc23)nc1 [Compound 29]  SIRT1 (Homo sapiens, UniProt Q96EB6)            AC50                   113
3  NC(=O)c1ccc(C(=O)Nc2ccc3ccccc3c2O)nc1 [Compound 19]  SIRT1 (Homo sapiens, UniProt Q96EB6)            AC50                  31.6
4  NC(=O)c1ccc(C(=O)Nc2cc3ccccc3cc2O)nc1 [Compound 18]  SIRT1 (Homo sapiens, UniProt Q96EB6)            AC50                   116

Lab note: next molecule to report on.
IN: If you can, please state the reported AC50 value of COc1cc2ccccc2c(NC(=O)c2ccc(C(N)=O)cn2)c1O [Compound 28] .
OUT: 175

----------
- Test system: rat hepatocytes
- protocol_notes: Metabolic stability in rat hepatocytes
- Type: in vitro ADME
- condition_details: hepatic clearance from CLint by well-stirred equation, rat Qh = 55 mL/min/kg
endpoint_label: rat CLh (L/h/kg)
Write down the numeric answer in L/h/kg and omit the unit.

> print(dat)
                                   compound           system  quantitative.readout
1  CCOc1ccc2ccc(=O)oc2c1 [Compound 7EC, reference compound]  rat hepatocytes                  2.18
2  NC(=O)c1ccc(C(=O)Nc2ccc(O)cc2O)nc1 [Compound 3]  rat hepatocytes                  1.62
3  NC(=O)c1ccc(C(=O)Nc2ccc(O)cc2O)cn1 [Compound 9]  rat hepatocytes                 0.708

Lab note: next compound to report on.
IN: If you can, please state the reported rat CLh value of NC(=O)c1ccc(C(=O)Nc2ccc(O)c3ccccc23)cn1 [Compound 11] .
OUT: 2.33

----------
- protocol_notes: Measured partition coefficients (MlogD7.4, logP11)
- Assay type: physicochemical
- condition_details: measured partition coefficient at pH 11; read-out: MlogP11
- Method: Physical properties tPSA and ClogP (calculated lipophilicity octanol/water) were calculated using ChemDraw. Additionally, M log D7.4 (measured partition coefficient at pH 7.4) and log P11 (measured partition coefficient at pH 11) were measured, and all data are shown in Table 7.
endpoint_label: logP
Please respond with just the number, no unit label.

IN: If you can, please state the reported logP value of NC(=O)c1ccc(C(=O)Nc2ccc(O)cc2O)nc1 [Compound 3] .
OUT: 1
